target: PAOX activity in HT22 cells (Mus musculus); test: PAOX activity in whole HT22 cells
VALUE_KIND: pIC50
Numbers only, as −log10 of the molar value.

Query: pIC50 for "COc1ccccc1CNCCCCCCNCCCCCCCCNCCCCCCNCc1ccccc1OC" ?
Result: 6.80

---

target: murine PAOX (Mus musculus, UniProt Q8C0L6)
Sequence (Q8C0L6 whole entry): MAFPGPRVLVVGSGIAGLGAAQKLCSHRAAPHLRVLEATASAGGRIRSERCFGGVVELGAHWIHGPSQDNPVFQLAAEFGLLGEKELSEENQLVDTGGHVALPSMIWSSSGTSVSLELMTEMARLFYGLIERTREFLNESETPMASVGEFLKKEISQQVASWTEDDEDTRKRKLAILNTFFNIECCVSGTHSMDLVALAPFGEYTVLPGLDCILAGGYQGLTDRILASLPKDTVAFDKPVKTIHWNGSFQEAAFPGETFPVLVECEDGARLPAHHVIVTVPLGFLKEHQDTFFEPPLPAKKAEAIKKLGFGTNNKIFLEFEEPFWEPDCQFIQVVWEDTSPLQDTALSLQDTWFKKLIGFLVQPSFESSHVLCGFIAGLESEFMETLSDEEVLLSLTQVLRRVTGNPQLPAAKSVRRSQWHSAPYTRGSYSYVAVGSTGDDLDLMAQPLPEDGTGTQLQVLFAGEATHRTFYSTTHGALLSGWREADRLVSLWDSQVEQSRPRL
VALUE_KIND: Ki
Provide the measurement as a number trailed by its unit.

Query: Ki for COc1ccccc1CNCCCCCCNCCCCCCCCNCCCCCCNCc1ccccc1OC [Compound 10, Methoctramine] ?
Result: 0.01 µM

---

Kindly supply the reported SMOX Kmapp values for the records listed here.
biological target: murine SMOX (Mus musculus, UniProt Q99K82); test: Inhibition of SMOX activity, spermine as substrate; type: biochemical; conditions: Km of SPM in the presence of 50 μM compound
Sequence (Q99K82 whole entry): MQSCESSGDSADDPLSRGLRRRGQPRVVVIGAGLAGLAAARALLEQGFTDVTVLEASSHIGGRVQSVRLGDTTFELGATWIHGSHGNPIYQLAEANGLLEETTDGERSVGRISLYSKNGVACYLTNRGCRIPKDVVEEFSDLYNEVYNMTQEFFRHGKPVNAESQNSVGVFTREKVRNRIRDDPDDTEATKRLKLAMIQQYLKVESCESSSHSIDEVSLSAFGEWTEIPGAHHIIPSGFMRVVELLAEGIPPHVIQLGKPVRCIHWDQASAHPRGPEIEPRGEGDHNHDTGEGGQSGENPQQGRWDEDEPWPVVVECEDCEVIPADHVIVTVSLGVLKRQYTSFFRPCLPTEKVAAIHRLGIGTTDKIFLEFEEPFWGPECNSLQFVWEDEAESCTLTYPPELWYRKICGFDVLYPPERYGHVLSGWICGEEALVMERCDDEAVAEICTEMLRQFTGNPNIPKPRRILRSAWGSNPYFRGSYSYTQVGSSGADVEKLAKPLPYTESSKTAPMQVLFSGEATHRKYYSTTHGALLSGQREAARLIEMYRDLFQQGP
One number for each entry, in µM.

# batch size: 2; output SMOX Kmapp per entry
1. COc1ccccc1CN(C)CCCCCC(=O)N(C)CCCCCCCCN(C)C(=O)CCCCCN(C)Cc1ccccc1OC
2. c1ccc(CNCCCCCCCCCCCCNCc2ccccc2)cc1

Result:
1: 598; 2: 1135

# batch size: 2; output SMOX Kmapp per entry
1. NCCCCCCCCCCCCN [DIADO, 1,12-diaminododecane, reference compound]
2. COc1ccccc1CNCCCCCCNCCCCCCCCNCCCCCCNCc1ccccc1OC

Result:
1: 600; 2: 8940

Where these numbers come from: paper PMC6407594
